The binders listed here are annotated with their t/2 diss.
measured-target: Biotinylated murine soluble TWEAK (amino acids 81-225 of SEQ ID NO: 61) (murine) (UniProt O54907)
test-summary: Biacore SPR, biotinylated murine soluble TWEAK on SA sensor, antibody as analyte, 25 C
A number alone suffices; assume min.

Sample answers from the record:
Antibody 30 (antibody, V domains shown, Humanized variant of antibody 305; also called humanized 305 variant 305-LC1 / 305-HC10) VH: EVQLLESGGGLVQPGGSLRLSCAASGFDFSTYYMSWVRQAPGKGLEWVSTVYVRQGTTYYASWLNGRFTISRDNSKNTLYLQMNSLTAEDTAVYYCAKGGYNYDDAFVIWGQGTLVTVSS VL: DIQMTQSPSSVSASVGDRVTITCQASQNIYSNLAWYQQKPGKAPKLLIYTASYLASGVPSRFSGSGSGTDFTLTISSLQPEDFATYYCQTAYYNSRPDTVAFGGGTKVEIK
17
Antibody 27 (antibody, V domains shown, also called humanized 305 variant 305-LC2 / 305-HC4) VH: QVQLVQSGAEVKKPGSSVKVSCKASGFDFSTYYMSWVRQAPGQGLEWMGTVYVRQGTTYYASWLNGRVTITADESTSTAYMELSSLRSEDTAVYYCARGGYNYDDAFVIWGQGTLVTVSS VL: DIQMTQSPSSVSASVGDRVTITCQASQNIYSNLAWYQQKPGKAPKLLIYTASYLASGVPSRFSGSGSGTDYTLTISSLQPEDFATYYCQTAYYNSRPDTVAFGGGTKVEIK
19
Antibody 33 (antibody, V domains shown, Humanized variant of antibody 305; also called humanized 305 variant 305-LC4 / 305-HC4) VH: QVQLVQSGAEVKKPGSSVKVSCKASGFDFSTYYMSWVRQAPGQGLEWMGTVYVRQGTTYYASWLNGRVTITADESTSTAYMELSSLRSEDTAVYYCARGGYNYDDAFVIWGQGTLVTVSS VL: AIRMTQSPSSFSASTGDRVTITCQASQNIYSNLAWYQQKPGKAPKLLIYTASYLASGVPSRFSGSGSGTDYTLTISCLQSEDFATYYCQTAYYNSRPDTVAFGGGTKVEIK
19
Antibody 31 (antibody, V domains shown, Humanized variant of antibody 305; also called humanized 305 variant 305-LC4 / 305-HC7) VH: EVQLLESGGGLVQPGGSLTLSCAASGFDFSTYYMSWVRQAPGKGLEWVSTVYVRQGTTYYASWLNGRFTISRDNSKNTLYLQMNSLRAEDTAVYYCAKGGYNYDDAFVIWGQGTLVTVSS VL: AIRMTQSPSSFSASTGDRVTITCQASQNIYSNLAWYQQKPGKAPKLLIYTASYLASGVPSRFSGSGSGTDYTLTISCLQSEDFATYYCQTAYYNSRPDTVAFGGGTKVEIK
19

With those in mind, consider the next binder.
Data request: Which value of t/2 diss has been reported for Antibody 28 (antibody, V domains shown, Humanized variant of antibody 305; also called humanized 305 variant 305-LC2 / 305-HC7) VH: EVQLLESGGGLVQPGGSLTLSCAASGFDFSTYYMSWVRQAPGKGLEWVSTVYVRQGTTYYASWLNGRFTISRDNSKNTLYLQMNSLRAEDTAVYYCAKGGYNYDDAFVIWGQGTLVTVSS VL: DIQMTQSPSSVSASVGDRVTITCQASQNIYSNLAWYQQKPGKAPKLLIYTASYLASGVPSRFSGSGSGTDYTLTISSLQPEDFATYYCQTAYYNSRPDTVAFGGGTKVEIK in the records?
Data returned: 19
